- Method description: Ionization constant of the compound
Measured metric: pKa

COc1cc2nc(N(C)C)cc(N)c2cc1OC 9.3
COc1cc2cc(N(C)C)nc(N)c2cc1OC 7.1
COc1cc2nc(N3CCN(C(=O)c4ccco4)CC3)nc(N)c2cc1OC 6.8
COc1cc2nc(N(C)C)nc(N)c2cc1OC 8.1

====

- Subject of test: Adrenergic receptor alpha-1 (Rattus norvegicus, UniProt P15823+P23944+P43140)
- Method description: Binding affinity to Alpha-1 adrenergic receptor by displacement of [3H]prazosin
- Type: protein assay
- Run conditions: read-out: Ki
Measured metric: Ki (nM)

I = COc1cc2nc(N(C)C)nc(N)c2cc1OC
II = COc1cc2cc(N3CCN(C(=O)c4ccco4)CC3)nc(N)c2cc1OC
III = COc1cc2nc(N(C)C)cc(N)c2cc1OC
Problem: Could you list the above molecules by Ki, going from the biggest number down? Your task in answering is to list the labels in the requested order.
Solution: II, III, I

====

- Subject of test: Adrenergic receptor alpha-2 (Rattus norvegicus, UniProt P22086+P19328+P22909)
- Method description: Binding affinity to alpha-2 adrenergic receptor by displacement of [3H]clonidine
- Assay type: protein assay
Measured metric: Ki

Solved cases below.
COc1cc2nc(N(C)C)nc(N)c2cc1OC > 1000 nM
COc1cc2cc(N(C)C)nc(N)c2cc1OC >> 1 uM
COc1cc2cc(N3CCCCC3)nc(N)c2cc1OC >> 1 uM

Problem: Which Ki value belongs to COc1cc2nc(N(C)C)cc(N)c2cc1OC ?
Solution: > 1000 nM
